Data provenance is patent US20240327334A1.

- tested.system: SARS-CoV-2 Papain-like (PLpro) protease (Severe acute respiratory syndrome coronavirus 2)
- test.method.notes: SARS-CoV-2 Papain-like (PLpro) protease biochemical enzyme inhibition assay (ubiquitin-fluorophore substrate, Ub-R110)
- condition: Ub-R110 substrate; run in duplicate; read-out: PLpro IC50
pIC50: −log10 of the molar value.
measured.metric: pIC50

compound=C#CCNC(=O)C(=O)NCc1ccccc1C(=O)NC1(c2cc(F)cc(Br)c2)CC1 measured_metric=pIC50 experimental_value="> 7.00"
compound=N#CCNC(=O)C(=O)NCc1ccccc1C(=O)NC1(c2cc(C(F)(F)F)nc3ccccc23)CC1 measured_metric=pIC50 experimental_value="> 7.00"
compound=N#CCNC(=O)C(=O)NCc1ccccc1C(=O)NC1(c2cc(Cl)cc(-c3cnn(C4CC4)c3)c2)CC1 measured_metric=pIC50 experimental_value="> 7.00"
compound="COc1cc(C2(NC(=O)c3ccccc3CNC(=O)C(=O)NCC(O)C(F)(F)F)CC2)cc2cn(C3CC3)nc12 (stereo not shown)" measured_metric=pIC50 experimental_value="< 5.00"
compound=O=C(NCC#Cc1ncc(F)cc1F)C(=O)NCc1ccccc1C(=O)NC1(c2ccc3ccccc3c2)CC1 measured_metric=pIC50 experimental_value="> 7.00"
compound=NC(=O)N1CC[C@H](CNC(=O)C(=O)NCc2ccccc2C(=O)NC2(c3cccc4ccccc34)CC2)C1 measured_metric=pIC50 experimental_value="5.00 to 6.00"
compound=COC(=O)/C=C/CN(C)C(=O)C(=O)NCc1ccccc1C(=O)N[C@H](C)c1cccc2ccccc12 measured_metric=pIC50 experimental_value="5.00 to 6.00"

---

Reported pIC50 by item:
- tested.system: SARS-CoV-2 Papain-like (PLpro) protease (Severe acute respiratory syndrome coronavirus 2)
- test.method.notes: SARS-CoV-2 Papain-like (PLpro) protease biochemical enzyme inhibition assay (ubiquitin-fluorophore substrate, Ub-R110)
- condition: Ub-R110 substrate; run in duplicate; read-out: PLpro IC50
pIC50: −log10 of the molar value.
measured.metric: pIC50

compound=COC(=O)C#CCCNC(=O)C(=O)NCc1ccccc1C(=O)N[C@H](C)c1cccc2ccccc12 measured_metric=pIC50 experimental_value="> 7.00"
compound=N#CCNC(=O)C(=O)NCc1ccccc1C(=O)NC1(c2ccc3c4c(cccc24)C(=O)N3)CC1 measured_metric=pIC50 experimental_value="> 7.00"
compound=COc1cc(C2(NC(=O)c3ccccc3CNC(=O)C(=O)N[C@@H](C)C#Cc3ccc(C#N)cc3F)CC2)cc2cn(C3CC3)nc12 measured_metric=pIC50 experimental_value="> 7.00"
compound=COc1cc(C2(NC(=O)c3ccccc3CNC(=O)C(=O)NC[C@@H]3CCCN3)CC2)cc2cn(C3CC3)nc12 measured_metric=pIC50 experimental_value="5.00 to 6.00"
compound=CC(C)Oc1cccnc1C#CCNC(=O)C(=O)NCc1ccccc1C(=O)NC1(c2cc(F)cc(-c3cnn(C4CC4)c3)c2)CC1 measured_metric=pIC50 experimental_value="> 7.00"
compound=C[C@@H](C#Cc1ccc(C#N)cc1OC(F)(F)F)NC(=O)C(=O)NCc1ccccc1C(=O)NC1(c2ccc3ccccc3c2)CC1 measured_metric=pIC50 experimental_value="< 5.00"
compound=N#CCCCNC(=O)C(=O)NCc1ccccc1C(=O)NC1(c2ccc3ccccc3c2)CC1 measured_metric=pIC50 experimental_value="5.00 to 6.00"
compound=N#Cc1cc(-c2cnn(C3CC3)c2)c(F)c(C2(NC(=O)c3ccccc3CNC(=O)C(=O)NCC#Cc3nccs3)CC2)c1 measured_metric=pIC50 experimental_value="> 7.00"
compound=N#CN1CC(NC(=O)C(=O)NCc2ccccc2C(=O)NC2(c3cccc4ccccc34)CC2)C1 measured_metric=pIC50 experimental_value="6.00 to 7.00"
compound=CCN(OC)C(=O)/C=C/CNC(=O)C(=O)NCc1ccccc1C(=O)NC1(c2cccc3ccccc23)CC1 measured_metric=pIC50 experimental_value="6.00 to 7.00"
compound=O=C(NC/C=C1\CCOC1=O)C(=O)NCc1ccccc1C(=O)NC1(c2ccc3ccccc3c2)CC1 measured_metric=pIC50 experimental_value="6.00 to 7.00"
compound=N#CCNC(=O)C(=O)NCc1ccccc1C(=O)NC1(c2cc(F)c(F)c(-c3cnn(C4CC4)c3)c2)CC1 measured_metric=pIC50 experimental_value="> 7.00"
compound=CC[C@@H](C#Cc1ncc(F)cn1)NC(=O)C(=O)NCc1ccccc1C(=O)NC1(c2ccc3nn(C)cc3c2)CC1 measured_metric=pIC50 experimental_value="> 7.00"
compound=N#CCNC(=O)C(=O)NCc1ccccc1C(=O)NC1(c2ccc3c4c(cccc24)CC3)CC1 measured_metric=pIC50 experimental_value="> 7.00"
compound=C#CCNC(=O)C(=O)NCc1ccccc1C(=O)NC1(c2cc(-c3cccs3)cc(Cl)c2F)CC1 measured_metric=pIC50 experimental_value="> 7.00"
compound=COC(=O)/C=C/C1(NC(=O)C(=O)NCc2ccccc2C(=O)N[C@H](C)c2cccc3ccccc23)CC1 measured_metric=pIC50 experimental_value="< 5.00"
compound=COc1cccnc1C#C[C@H](C)NC(=O)C(=O)NCc1ccccc1C(=O)NC1(c2ccc3nn(C)cc3c2)CC1 measured_metric=pIC50 experimental_value="> 7.00"
compound=COc1cc(C2(NC(=O)c3ccccc3CNC(=O)C(=O)NCC#N)CC2)c2cccnc2c1 measured_metric=pIC50 experimental_value="> 7.00"
compound=N#CCNC(=O)C(=O)NCc1ccccc1C(=O)NC1(c2cccc(-c3cccs3)c2Cl)CC1 measured_metric=pIC50 experimental_value="> 7.00"
compound=C#CCNC(=O)C(=O)NCc1ccccc1C(=O)NC1(c2cc(-c3cnn(C4CC4)c3)cc(C(F)(F)F)c2)CC1 measured_metric=pIC50 experimental_value="> 7.00"
compound=N#CCNC(=O)C(=O)NCc1ccccc1C(=O)NC1(c2ccc3nc(C4CC4)ccc3c2)CC1 measured_metric=pIC50 experimental_value="> 7.00"
compound=N#CCNC(=O)C(=O)NCc1ccccc1C(=O)NC1(c2cccn3nccc23)CC1 measured_metric=pIC50 experimental_value="6.00 to 7.00"
compound=C[C@H](NC(=O)c1ccccc1CNC(=O)C(=O)NCC#N)c1cc(C(F)(F)F)nc2ccccc12 measured_metric=pIC50 experimental_value="> 7.00"
compound="COC(=O)/C=C/CCNC(=O)C(=O)NCC1C[C@H]1C(=O)N[C@H](C)c1cccc2ccccc12 (stereo partly drawn)" measured_metric=pIC50 experimental_value="< 5.00"
compound=N#CCNC(=O)C(=O)NCc1ccccc1C(=O)NC1(c2cccc3ccccc23)CC1 measured_metric=pIC50 experimental_value="> 7.00"
compound=O=C(NCC#Cc1nccs1)C(=O)NCc1ccccc1C(=O)NC1(c2cccc3nc(C4CC4)ccc23)CC1 measured_metric=pIC50 experimental_value="> 7.00"
compound=N#CCNC(=O)C(=O)NCc1ccccc1C(=O)NC1(c2ccc3ccccc3c2)CC1 measured_metric=pIC50 experimental_value="6.00 to 7.00"
compound=O=C(NCC#Cc1ncc(F)s1)C(=O)NCc1ccccc1C(=O)NC1(c2ccc3ccccc3c2)CC1 measured_metric=pIC50 experimental_value="> 7.00"
compound="COC(=O)/C=C/CNC(=O)C(=O)NC(C)c1ccccc1C(=O)N[C@H](C)c1cccc2ccccc12 (stereo partly drawn)" measured_metric=pIC50 experimental_value="5.00 to 6.00"
compound=O=C(NCC#Cc1nccs1)C(=O)NCc1ccccc1C(=O)NC1(c2cnc3ccccc3c2)CC1 measured_metric=pIC50 experimental_value="> 7.00"

---

Reported IC50 values are given for each entry in this list.
- tested.system: SARS-CoV-2 Papain-like (PLpro) protease (Severe acute respiratory syndrome coronavirus 2)
- test.method.notes: SARS-CoV-2 Papain-like (PLpro) protease biochemical enzyme inhibition assay (ubiquitin-fluorophore substrate, Ub-R110)
- condition: Ub-R110 substrate; run in duplicate; read-out: PLpro IC50
measured.metric: IC50

molecule="C[C@@H](C#Cc1c(F)cccc1C#N)NC(=O)C(=O)NCc1ccccc1C(=O)NC1(c2ccc3nn(C)cc3c2)CC1 [Example 100]" tested_system="SARS-CoV-2 Papain-like (PLpro) protease (Severe acute respiratory syndrome coronavirus 2)" experimental_value="< 0.1 µM"
molecule="O=C(NCC#Cc1nccs1)C(=O)NCc1cccnc1C(=O)NC1(c2cc(F)cc(-c3cnn(C4CC4)c3)c2)CC1 [Example 84]" tested_system="SARS-CoV-2 Papain-like (PLpro) protease (Severe acute respiratory syndrome coronavirus 2)" experimental_value="< 0.1 µM"
molecule="CC(NC(=O)C(=O)NCC#N)c1ccccc1C(=O)N[C@H](C)c1cccc2ccccc12 (stereo partly shown) [Example 50]" tested_system="SARS-CoV-2 Papain-like (PLpro) protease (Severe acute respiratory syndrome coronavirus 2)" experimental_value="> 10 µM"
molecule="COc1cccnc1C#C[C@H](C)NC(=O)C(=O)NCc1ccccc1C(=O)NC1(c2cc(F)cc(-c3cnn(C4CC4)c3)c2)CC1 [Example 265]" tested_system="SARS-CoV-2 Papain-like (PLpro) protease (Severe acute respiratory syndrome coronavirus 2)" experimental_value="< 0.1 µM"
